test: NCOA3 reporter inhibition potency – cell-based, luminescence, counter-screen for SRC1 inhibitor project, dose response (AID 602234); settings: transfected HEK293 cells, counter-screen luciferase reporter;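 further: HEK293 cells co-transfected with pGL4.31 reporter and pBIND-SRC3 fusion vector; potency for inhibition of reporter luminescence with Gossypol as full inhibition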
Active and inactive are the calls of the source. How the calls were made is not given here.
Please answer using one outcome listed in 1 for active, 0 for inactive

Prompt line: Hi, do you know how Cc1ccc(S(=O)(=O)NC(CC(C)C)C(=O)NCC(c2ccco2)N2CCCCC2)cc1 (stereo not given) came out in this test?
Response line: 1

Prompt line: Hi, do you know how `Cc1nc2c(-c3ccc(Cl)cc3)c(C)[nH]n2c(=O)c1Cc1ccccc1` came out in this test?
Response line: 1

Prompt line: Hi, do you know how CC(=O)C1=C(C)NC2=C(C(=O)CC(C)(C)C2)C1C (stereo not given) came out in this test?
Response line: 1

Prompt line: Hi, do you know how COc1cc2c(cc1OC)C(NC(=O)C(F)(F)F)CNC2=O (stereo not given) came out in this test?
Response line: 1

Prompt line: Hi, do you know how `O=C(Nc1ccncc1)c1ccccc1[N+](=O)[O-]` came out in this test?
Response line: 1

Prompt line: Hi, do you know how `CCOC(=O)CC(=O)CSc1nccc(-c2cccnc2)n1` came out in this test?
Response line: 0

Prompt line: Hi, do you know how O=C(OC(c1ccccc1)c1nccc2ccccc12)c1ccccc1 (stereo not given) came out in this test?
Response line: 1

Prompt line: Hi, do you know how `Cc1noc(/C=C/c2ccco2)c1S(=O)(=O)N1CCC(C(=O)Nc2ccc(Cl)cn2)CC1` came out in this test?
Response line: 0

Prompt line: Hi, do you know how `COc1ccc(NC(=O)CN(C)C(=O)C2(c3ccccc3)CCCC2)cc1` came out in this test?
Response line: 1

Prompt line: Hi, do you know how Cc1c(/C(O)=C2/C(=O)C(=O)N(Cc3cccnc3)C2c2ccccn2)cnn1-c1ccccc1 (stereo not given) came out in this test?
Response line: 1

###

test: NCOA3 reporter inhibition potency – cell-based, luminescence, counter-screen for SRC1 inhibitor project, dose response (AID 602234); conditions: transfected HEK293 cells, counter-screen luciferase reporter;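 further: HEK293 cells co-transfected with pGL4.31 reporter and pBIND-SRC3 fusion vector; potency for inhibition of reporter luminescence with Gossypol as full inhibition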
Active and inactive are the calls of the source. No rule for the calls is given here.
Please answer using one outcome listed in active, inactive

Prompt line: Hi, do you know how `C=CCNc1ncnc2ccc(Br)cc12` came out in this test?
Response line: active

Prompt line: Hi, do you know how COc1ccccc1CNC(=O)C(=O)NCCC1CCCCN1S(=O)(=O)c1ccc(C)cc1 (stereo unspecified) came out in this test?
Response line: inactive

Prompt line: Hi, do you know how `Cc1ccc(OCC(=O)c2cc(C)n(Cc3cccs3)c2C)c([N+](=O)[O-])n1` came out in this test?
Response line: active

Prompt line: Hi, do you know how `Cc1ccc2nc(C(F)(F)F)c(C#N)c(N)c2c1` came out in this test?
Response line: active

Prompt line: Hi, do you know how COC(CN(C(=O)CCl)C(C(=O)NC1CCCCC1)c1ccccc1C)OC (stereo unspecified) came out in this test?
Response line: active

Prompt line: Hi, do you know how `COc1cc(C(=O)N/N=C(\c2ccccc2)c2ccccn2)cc(OC)c1OC` came out in this test?
Response line: active

###

test: NCOA3 reporter inhibition potency – cell-based, luminescence, counter-screen for SRC1 inhibitor project, dose response (AID 602234); settings: transfected HEK293 cells, counter-screen luciferase reporter;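 further: HEK293 cells co-transfected with pGL4.31 reporter and pBIND-SRC3 fusion vector; potency for inhibition of reporter luminescence with Gossypol as full inhibition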
Calls of active or inactive are those of the source. No rule for the calls is given here.
Please answer using one outcome listed in active, inactive

Prompt line: Hi, do you know how `COc1ccc2[nH]c(=O)c(CN(CCN3CCCC3)C(=O)Nc3ccccc3Cl)cc2c1` came out in this test?
Response line: active

Prompt line: Hi, do you know how `Nc1ccc(-c2cc3ccccc3oc2=O)cc1` came out in this test?
Response line: active

Prompt line: Hi, do you know how O=C(NC(NC(=S)N1CCOCC1)C(Cl)(Cl)Cl)c1ccc(Cl)cc1 (stereo unspecified) came out in this test?
Response line: active

Prompt line: Hi, do you know how Nc1ccn(C2OC(CO)C(O)C2O)c(=O)n1 (stereo unspecified) came out in this test?
Response line: active

Prompt line: Hi, do you know how `O=C(N/N=C/c1coc2ccc(Cl)cc2c1=O)c1ccc(O)cc1` came out in this test?
Response line: active

Prompt line: Hi, do you know how `COc1ccc(-c2cnc(N)nc2-c2ccc(OC)cc2O)cc1` came out in this test?
Response line: active

Prompt line: Hi, do you know how `Cc1nc2ccccn2c1-c1ccnc(=S)[nH]1` came out in this test?
Response line: active

Prompt line: Hi, do you know how `Cn1c(=O)c2[nH]c(COc3ccc(C(C)(C)C)cc3)nc2n(C)c1=O` came out in this test?
Response line: active

Prompt line: Hi, do you know how `CCc1nc(N)nc(N)c1-c1ccc(Cl)c([N+](=O)[O-])c1` came out in this test?
Response line: active

Prompt line: Hi, do you know how `C=CCn1c(O)c(C(C)=NCc2cc(OC)cc(OC)c2)c(=O)[nH]c1=O` came out in this test?
Response line: active

Prompt line: Hi, do you know how CN(Cc1cnc2nc(N)nc(N)c2n1)c1ccc(C(=O)NC(CCC(=O)O)C(=O)O)c2ccccc12 (stereo unspecified) came out in this test?
Response line: active

Prompt line: Hi, do you know how `Cc1c(C(=O)N/N=C/C(C)C)[nH]c2ccc([N+](=O)[O-])cc12` came out in this test?
Response line: inactive

Prompt line: Hi, do you know how `O=C(Nc1nc(-c2ccccn2)cs1)c1cccc(-n2cnnn2)c1` came out in this test?
Response line: inactive

Prompt line: Hi, do you know how `Cc1cc(C)nc(SCc2ccc(C(=O)N/N=C/c3cccc(O)c3O)cc2)n1` came out in this test?
Response line: active

Prompt line: Hi, do you know how `Cc1ccc(N(Cc2cc(=O)[nH]c3ccccc23)C(=O)CCl)c(C)c1` came out in this test?
Response line: active

Prompt line: Hi, do you know how `COc1cc(OC)c2cc(C(=O)N/N=C/c3cccc(OC)c3O)[nH]c2c1` came out in this test?
Response line: active

Prompt line: Hi, do you know how `Cc1ccc(S(=O)(=O)N2[C@@H](c3ccc(C(C)(C)C)cc3)C(C(=O)O)=CC[C@H]2c2ccc(Cl)cc2)cc1` came out in this test?
Response line: inactive

Prompt line: Hi, do you know how `Cc1ccc(NC(=O)C2CCN(c3ncnc4sc(C)c(C)c34)CC2)cc1S(=O)(=O)N(C)C` came out in this test?
Response line: inactive

Prompt line: Hi, do you know how `Cn1nc(C(F)(F)F)c(C#N)c1N1CCN(c2ccccc2)CC1` came out in this test?
Response line: active

Prompt line: Hi, do you know how `O=C(Nc1cccc(C(F)(F)F)c1)Nc1nnc([C@@H]2C[C@H](O)[C@@H](CO)O2)s1` came out in this test?
Response line: active

Prompt line: Hi, do you know how `O=C1NCCc2c1[nH]c1ccc([N+](=O)[O-])cc21` came out in this test?
Response line: active

Ref: PubChem BioAssay AID602234
